study.system: Gal4-RORγ-LBD (Homo sapiens, UniProt P51449)
Construct: expressed in transfected cells; host or cells: HEK-293 cells (pcDNA3.1neo plasmid)
Sequence (P51449 269-508 limits assumed): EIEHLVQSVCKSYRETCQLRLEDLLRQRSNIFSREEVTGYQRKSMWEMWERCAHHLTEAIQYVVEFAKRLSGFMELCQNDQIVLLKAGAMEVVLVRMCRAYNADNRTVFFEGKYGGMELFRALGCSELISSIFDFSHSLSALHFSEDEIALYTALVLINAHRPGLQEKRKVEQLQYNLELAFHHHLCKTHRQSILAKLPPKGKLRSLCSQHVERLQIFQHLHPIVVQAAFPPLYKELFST
experiment.summary: Gal4-RORγ Luciferase Reporter Assay in HEK-293T Cells
Assay type: cell-based
condition.parameters: HEK-293 cells, luciferase reporter, with 2 μM ursolic acid
measurement.kind: EC50

{"columns": ["compound", "measured.result"],
 "data": [
  ["CC(=O)N[C@H](C)C(=O)NC[C@H]1CN(S(=O)(=O)c2cccc(C(F)(F)F)c2)c2cc(-c3cc(F)ccc3F)ccc2O1 [Compound 30AT]", "500 to 5000 nM"],
  ["N#CCC(=O)NC[C@H]1CN(S(=O)(=O)c2cccc(C(F)(F)F)c2)c2cc(-c3cccc(C(F)(F)F)n3)ccc2O1 [Compound 30BH]", "500 to 5000 nM"],
  ["O=C(O)CC[C@H]1CN(S(=O)(=O)c2cccc(C(F)(F)F)c2)c2cc(-c3cccc(C4CC4)c3)ccc2O1 [Compound 4R]", "< 500 nM"],
  ["Cn1cc(C(=O)NC[C@H]2CN(S(=O)(=O)c3cccc(C(F)(F)F)c3)c3cc(-c4cc(F)ccc4F)ccc3O2)cn1 [Compound 30AH]", "< 500 nM"],
  ["CC(C)(CO)C(=O)NC[C@H]1CN(S(=O)(=O)c2cccc(C(F)(F)F)c2)c2cc(-c3cc(F)ccc3F)ccc2O1 [Compound 30AU]", "< 500 nM"],
  ["COc1cc(Cl)cc(-c2ccc3c(c2)N(S(=O)(=O)c2cccc(C(F)(F)F)c2)C[C@H](CCC(=O)O)O3)c1 [Compound 2AO]", "< 500 nM"]
]}
